tested on: CLZ3 (HCA2 human fibroblast dual HR-NHEJ reporter); assay: NHEJ repair efficiency (GFP+ cells) relative to control (log10 fold); higher = more non-homologous end joining; conditions: 5 µM; doxycycline 0.5 ug/mL;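 note: compound given one day ahead of doxycycline, which switches on I-SceI endonuclease to cut the chromosomally integrated reporter and create DSBs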
Examples of compounds with documented NHEJ repair efficiency (log10) follow.
QUANTITY: NHEJ repair efficiency (log10)

>>> print(df.to_string())
                                   compound  reported_result
0  Nc1ncnc2c1ncn2[C@@H]1O[C@H](CO)C[C@H]1O [Cordycepin]            0.007
1  COC(=O)C1=CO[C@@H](O[C@@H]2O[C@H](CO)[C@@H](O)[C@H](O)[C@H]2O)[C@H]2[C@@H]1[C@H](O)C[C@]2(C)O [Shanzhiside methylester]            0.193
2  COC(=O)C1=CO[C@@H](O[C@@H]2O[C@H](CO)[C@@H](O)[C@H](O)[C@H]2O)[C@@H]2[C@@H](C)[C@@H](O)C[C@H]12            0.226
3  O=C(/C=C/c1ccc(O)c(O)c1)O[C@H](C(=O)O)[C@H](OC(=O)/C=C/c1ccc(O)c(O)c1)C(=O)O           0.0111
